assay: CD secondary structure of GOLPH3 proteins (BestSel fits)
Assay type: physicochemical, human
appliedConditions: 10 μM, 100 mM NaCl, 50 mM Tris pH 7.4, 1 mM TCEP, 20 °C
measuredAttribute: % alpha (%)
The answer is to be given in %; state only the numeric part.

Given the molecule D247R: recombinant GOLPH3 mutant D247R (protein, UniProt Q9H4A6 1-298, looked up, variant D247R) Golgi phosphoprotein 3: MTSLTQRSSGLVQRRTEASRNAADKERAAGGGAGSSEDDAQSRRDEQDDDDKGDSKETRLTLMEEVLLLGLKDREGYTSFWNDCISSGLRGCMLIELALRGRLQLEACGMRRKSLLTRKVICKSDAPTGDVLLDEALKHVKETQPPETVQNWIELLSGETWNPLKLHYQLRNVRERLAKNLVEKGVLTTEKQNFLLFDMTTHPLTNNNIKQRLIKKVQEAVLDKWVNDPHRMDRRLLALIYLAHASRVLENAFAPLLDEQYDLATKRVRQLLDLDPEVECLKANTNEVLWAVVAAFTK , what is its reported % alpha? 38

And what about the molecule GOLPH3-4G: mutant F194G/L195G/L196G/F197G with improved solubility (protein) MTSLTQRSSGLVQRRTEASRNAADKERAAGGGAGSSEDDAQSRRDEQDDDDKGDSKETRLTLMEEVLLLGLKDREGYTSFWNDCISSGLRGCMLIELALRGRLQLEACGMRRKSLLTRKVICKSDAPTGDVLLDEALKHVKETQPPETVQNWIELLSGETWNPLKLHYQLRNVRERLAKNLVEKGVLTTEKQNGGGGDMTTHPLTNNNIKQRLIKKVQEAVLDKWVNDPHRMDRRLLALIYLAHASDVLENAFAPLLDEQYDLATKRVRQLLDLDPEVECLKANTNEVLWAVVAAFTK ? 36

And what about the molecule D247A: GOLPH3 mutant D247A; recombinant in biophysics, transfected construct in cells (protein, UniProt Q9H4A6 1-298, looked up, variant D247A) Golgi phosphoprotein 3: MTSLTQRSSGLVQRRTEASRNAADKERAAGGGAGSSEDDAQSRRDEQDDDDKGDSKETRLTLMEEVLLLGLKDREGYTSFWNDCISSGLRGCMLIELALRGRLQLEACGMRRKSLLTRKVICKSDAPTGDVLLDEALKHVKETQPPETVQNWIELLSGETWNPLKLHYQLRNVRERLAKNLVEKGVLTTEKQNFLLFDMTTHPLTNNNIKQRLIKKVQEAVLDKWVNDPHRMDRRLLALIYLAHASAVLENAFAPLLDEQYDLATKRVRQLLDLDPEVECLKANTNEVLWAVVAAFTK ? 36
